Cited source for all entries: patent US7666875B2

target: human T-bet (Homo sapiens, UniProt Q9UL17); construct: expressed in transfected cells; host or cells: engineered HEK cells (HEKT-bet); test: HEKT-bet-luc assay (T-bet dependent luciferase reporter in engineered HEK cells); type: cell-based; details: Table 4; HEKT-bet cells, compound 24 hours; IC50 normalized to reference ER-213038; read-out: IC50
Sequence (Q9UL17 whole entry): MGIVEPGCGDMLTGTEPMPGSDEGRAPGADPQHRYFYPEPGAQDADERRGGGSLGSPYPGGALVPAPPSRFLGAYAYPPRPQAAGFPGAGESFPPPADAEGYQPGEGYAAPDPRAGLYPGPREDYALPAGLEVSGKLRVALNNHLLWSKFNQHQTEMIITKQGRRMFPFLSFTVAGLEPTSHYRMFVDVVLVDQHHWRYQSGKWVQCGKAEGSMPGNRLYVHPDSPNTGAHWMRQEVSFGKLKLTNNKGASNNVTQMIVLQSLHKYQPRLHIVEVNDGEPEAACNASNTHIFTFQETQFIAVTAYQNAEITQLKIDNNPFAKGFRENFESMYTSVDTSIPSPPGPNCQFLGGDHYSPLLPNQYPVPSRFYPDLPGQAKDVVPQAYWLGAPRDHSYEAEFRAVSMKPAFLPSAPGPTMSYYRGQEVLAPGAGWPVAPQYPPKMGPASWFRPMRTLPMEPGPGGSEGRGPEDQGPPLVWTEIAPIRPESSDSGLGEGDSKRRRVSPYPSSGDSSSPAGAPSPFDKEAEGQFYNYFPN
MEASURED_QUANTITY: IC50 (nM)

- CCOc1ccc2ccccc2c1CN1CCC2(CC1)C(=O)N(Cc1cccc(OC)c1)C(=O)N2CCOC [Example 142]: 130
- COc1cccc(CN2C(=O)N(Cc3ccccn3)C3(CCN(Cc4cccc5ccccc45)CC3)C2=O)c1 [Example 241]: 424

A. COc1cc(CN2CCC3(CC2)C(=O)N(C/C=C/c2ccccc2)C(=O)N3C)cc(OC)c1 [Example 121]
B. COCCN1C(=O)N(Cc2cccc(OC)c2)C(=O)C12CCN(Cc1cccc(Br)c1)CC2 [Example 159]
In: Which value of IC50 is numerically greater: that of A or that of B ? Could you answer with the label of the item you picked?
Out: B

---

target: human T-bet (Homo sapiens); construct: expressed in transfected cells; host or cells: engineered HEK cells (HEKT-bet); test: HEKT-bet-luc assay (T-bet dependent luciferase reporter in engineered HEK cells); type: cell-based; settings: Table 4; HEKT-bet cells, compound 24 hours; IC50 normalized to reference ER-213038; read-out: IC50
MEASURED_QUANTITY: IC50 (µM)

* CCN1C(=O)N(CCCc2ccccc2)C(=O)C12CCN(Cc1cc(OC)cc(OC)c1)CC2 | 0.365
* COCCN1C(=O)N(Cc2cccc(-n3cccc3)c2)C(=O)C12CCN(Cc1ccccc1)CC2 | 0.469
* COc1cccc(CN2C(=O)N(CCn3cccc3)C3(CCN(Cc4cccc5ccccc45)CC3)C2=O)c1 | 0.334
* COCCN1C(=O)N(Cc2cccc(OC)c2)C(=O)C12CCN(Cc1ccc(-c3ccccc3)cc1)CC2 | 0.55
* CCOc1ccccc1CN1CCC2(CC1)C(=O)N(Cc1cccc(OC)c1)C(=O)N2CCOC | 0.495

I. COCCN1C(=O)N(C/C=C/c2ccccc2)C(=O)C12CCN(Cc1ccccc1)CC2
II. COCCCN1C(=O)N(Cc2cccc(OC)c2)C(=O)C12CCN(Cc1cc(OC)cc(OC)c1)CC2
In: Which value of IC50 is numerically greater: that of I or that of II ? Could you answer with the label of the item you picked?
Out: II
(II: 0.441 µM, I: 0.191 µM)

---

target: human T-bet (Homo sapiens, UniProt Q9UL17); construct: expressed in transfected cells; host or cells: engineered HEK cells (HEKT-bet); experiment: HEKT-bet-luc assay (T-bet dependent luciferase reporter in engineered HEK cells); assay type: cell-based; details: Table 2; HEKT-bet cells, compound 24 hours; IC50 normalized to reference ER-213038; read-out: IC50
pIC50: −log10 of the molar value.
MEASURED_QUANTITY: pIC50

- COc1cc(CN2CCC3(CC2)C(=O)N(C/C=C/c2ccccc2)C(=O)N3CCO)cc(OC)c1: 7.21
- COc1cc(CN2CCC3(CC2)C(=O)N(C/C=C/c2ccccc2)C(=O)N3Cc2ccc(-n3cccn3)cc2)cc(OC)c1: 7.35

---

Target: human T-bet (Homo sapiens)
Construct: expressed in transfected cells; host or cells: engineered HEK cells (HEKT-bet)
Assay: HEKT-bet-luc assay (T-bet dependent luciferase reporter in engineered HEK cells)
Format: cell-based
Settings: Table 4; HEKT-bet cells, compound 24 hours; IC50 normalized to reference ER-213038; read-out: IC50
Experimental: HEKT-bet-luc assay: This assay measures a T-bet dependent reporter (luciferase) activity in engineered HEK cells that express a human T-bet and a T-box responsive element driving luciferase reporter. HEKT-bet cells were plated at 2×10^4/well in 96-well plate and compound was added into cell culture for 24 hours. Luciferase activity was measured by adding 50 μl of Steady-Glo reagent (Promega) and samples were read in Victor V reader (PerkinElmer). […]
pIC50: −log10 of the molar value.
MEASURED_QUANTITY: pIC50

• COCCN1C(=O)N(Cc2cccc(OC)c2)C(=O)C12CCN(Cc1ccc(C)cc1C)CC2 [Example 199] = 6.55

I. COc1cc(CN2CCC3(CC2)C(=O)N(C/C=C/c2ccccc2)C(=O)N3Cc2cccc(-n3cccc3)c2)cc(OC)c1 [Example 126]
II. COCCN1C(=O)N(Cc2cccc(OC)c2)C(=O)C12CCN(Cc1ccccc1)CC2 [Example 234]
In: Of the pair I and II , name the member with the lesser recorded pIC50. Could you answer with the label of the item you picked?
Out: II
(II: 6.41, I: 7.14)

A. COCCN1C(=O)N(C/C=C/c2ccccc2)C(=O)C12CCN(Cc1cccc3ccccc13)CC2 [Example 131]
B. COCCN1C(=O)N(Cc2cccc(OC)c2)C(=O)C12CCN(Cc1cccc3ccccc13)CC2 [Example 191]
C. COc1cc(CN2CCC3(CC2)C(=O)N(Cc2cc(OC)cc(OC)c2)C(=O)N3Cc2ccc(-n3cccn3)cc2)cc(OC)c1 [Example 288]
In: List the 3 entries from lowest pIC50 to highest pIC50 value. Give the labels in the order specified.
Out: C, B, A

1. CN1C(=O)N(C/C=C/c2ccccc2)C(=O)C12CCN(Cc1cccc3ccccc13)CC2 [Example 184]
2. COCCN1C(=O)N(Cc2cccc(OC)c2)C(=O)C12CCN(Cc1cccc(OC)c1)CC2 [Example 239]
In: Which value of pIC50 is numerically greater: that of 1 or that of 2 ? Could you answer with the label of the item you picked?
Out: 1

a. C#CCOc1ccc(CN2CCC3(CC2)C(=O)N(Cc2cccc(OC)c2)C(=O)N3CCOC)cc1OC [Example 261]
b. COCCN1C(=O)N(CCCc2ccccc2)C(=O)C12CCN(Cc1cc(OC)cc(OC)c1)CC2 [Example 188]
c. COCCN1C(=O)N(C/C=C/c2cccc3ccccc23)C(=O)C12CCN(Cc1ccccc1)CC2 [Example 152]
In: List the 3 entries from lowest pIC50 to highest pIC50 value. Give the labels in the order specified.
Out: a, b, c
(a: 6.31, b: 6.61, c: 6.83)

1. COCCN1C(=O)N(CCCc2ccccc2OC)C(=O)C12CCN(Cc1ccccc1)CC2 [Example 291]
2. COCCN1C(=O)N(Cc2cccc(OC)c2)C(=O)C12CCN(Cc1cccc(C)c1C)CC2 [Example 134]
In: Of the pair 1 and 2 , name the member with the lesser recorded pIC50. Could you answer with the label of the item you picked?
Out: 1

---

Biological target: human T-bet (Homo sapiens)
Construct: expressed in transfected cells; host or cells: engineered HEK cells (HEKT-bet)
Experiment: HEKT-bet-luc assay (T-bet dependent luciferase reporter in engineered HEK cells)
Format: cell-based
Settings: Table 4; HEKT-bet cells, compound 24 hours; IC50 normalized to reference ER-213038; read-out: IC50
Method: HEKT-bet-luc assay: This assay measures a T-bet dependent reporter (luciferase) activity in engineered HEK cells that express a human T-bet and a T-box responsive element driving luciferase reporter. HEKT-bet cells were plated at 2×10^4/well in 96-well plate and compound was added into cell culture for 24 hours. Luciferase activity was measured by adding 50 μl of Steady-Glo reagent (Promega) and samples were read in Victor V reader (PerkinElmer). […]
MEASURED_QUANTITY: IC50 (nM)

- COCCN1C(=O)N(Cc2cccc(OC)c2)C(=O)C12CCN(Cc1ccc3c(c1)Cc1ccccc1-3)CC2 [Example 257]: 479

1. COCCN1C(=O)N(Cc2cccc(-c3ccccc3)c2)C(=O)C12CCN(Cc1ccccc1)CC2 [Example 243]
2. COCCN1C(=O)N(Cc2cccc(OC)c2)C(=O)C12CCN(Cc1ccc(N(C)C)c3ccccc13)CC2 [Example 194]
In: Of the pair 1 and 2 , name the member with the lesser recorded IC50. Could you answer with the label of the item you picked?
Out: 2

---

target: human T-bet (Homo sapiens, UniProt Q9UL17); construct: expressed in transfected cells; host or cells: engineered HEK cells (HEKT-bet); test: HEKT-bet-luc assay (T-bet dependent luciferase reporter in engineered HEK cells); format: cell-based; settings: Table 3; HEKT-bet cells, compound 24 hours; IC50 normalized to reference ER-213038; read-out: IC50
MEASURED_QUANTITY: IC50 (nM)

1. COCCN1C(=O)N(Cc2ccc(C(=O)c3ccccc3)cc2)C(=O)C12CCN(Cc1ccccc1)CC2 [Example 100]
2. COCCN1C(=O)N(Cc2cccc(OC)c2)C(=O)C12CCN(Cc1c(Cl)cccc1Cl)CC2 [Example 87]
In: Which value of IC50 is numerically greater: that of 1 or that of 2 ? Could you answer with the label of the item you picked?
Out: 1
(1: 1240 nM, 2: 782 nM)

---

biological target: human T-bet (Homo sapiens, UniProt Q9UL17); construct: expressed in transfected cells; host or cells: engineered HEK cells (HEKT-bet); test: HEKT-bet-luc assay (T-bet dependent luciferase reporter in engineered HEK cells); type: cell-based; details: Table 4; HEKT-bet cells, compound 24 hours; IC50 normalized to reference ER-213038; read-out: IC50
pIC50: −log10 of the molar value.
MEASURED_QUANTITY: pIC50

Example entries begin here.
* COCCN1C(=O)N(Cc2cccc(OC)c2)C(=O)C12CCN(Cc1cccc(OC)c1)CC2 [Example 178] | 6.69
* COCCN1C(=O)N(Cc2cccc(OC)c2)C(=O)C12CCN(Cc1cc(OC)ccc1OC)CC2 | 6.29
* COCCN1C(=O)N(Cc2ccc3ccccc3c2)C(=O)C12CCN(Cc1ccc3ccccc3c1)CC2 | 6.35

1. COCCN1C(=O)N(Cc2cccc(OC)c2)C(=O)C12CCN(Cc1ccc3ccccc3c1)CC2 [Example 213]
2. COCN1C(=O)N(C/C=C/c2ccccc2)C(=O)C12CCN(Cc1cc(OC)cc(OC)c1)CC2
In: Of the pair 1 and 2 , name the member with the lesser recorded pIC50. Could you answer with the label of the item you picked?
Out: 1
(1: 6.47, 2: 6.91)

I. COc1cccc(CN2C(=O)N(Cc3ccncc3)C3(CCN(Cc4cccc5ccccc45)CC3)C2=O)c1
II. CCOc1ccc(OCC)c(CN2CCC3(CC2)C(=O)N(Cc2cccc(OC)c2)C(=O)N3CCOC)c1
III. COCCN1C(=O)N(Cc2cccc(OC)c2)C(=O)C12CCN(Cc1cc(-c3ccccc3)ccc1OC)CC2
In: Please list the entries, largest pIC50 first. Give the labels in the order specified.
Out: I, III, II

I. COc1cccc(CN2C(=O)N(Cc3ccc(-n4cccn4)cc3)C3(CCN(Cc4cccc5ccccc45)CC3)C2=O)c1
II. COc1cccc(CN2C(=O)N(CCCO)C3(CCN(Cc4cc(OC)cc(OC)c4)CC3)C2=O)c1
In: Which value of pIC50 is numerically greater: that of I or that of II ? Could you answer with the label of the item you picked?
Out: I
